These compounds were tested on Glycogen synthase kinase-3 beta (Homo sapiens, UniProt P49841); ΔTm is the recorded read-out.
Sequence (P49841 whole entry, looked up): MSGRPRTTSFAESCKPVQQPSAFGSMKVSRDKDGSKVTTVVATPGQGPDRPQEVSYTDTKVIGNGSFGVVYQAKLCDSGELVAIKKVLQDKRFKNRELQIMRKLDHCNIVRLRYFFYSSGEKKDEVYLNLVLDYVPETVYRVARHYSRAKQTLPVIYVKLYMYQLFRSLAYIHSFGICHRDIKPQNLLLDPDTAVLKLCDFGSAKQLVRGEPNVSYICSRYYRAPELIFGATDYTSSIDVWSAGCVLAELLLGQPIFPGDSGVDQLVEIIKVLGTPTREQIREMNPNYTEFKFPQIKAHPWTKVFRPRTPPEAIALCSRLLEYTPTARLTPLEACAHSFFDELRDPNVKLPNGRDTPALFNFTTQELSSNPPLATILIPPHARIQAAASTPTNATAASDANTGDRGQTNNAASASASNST
measured-attribute: ΔTm (°C)

compound	measured-attribute	obs-value
N#C/C(=C1/Nc2ccccc2S1)c1ccnc(NCCc2cccnc2)n1	ΔTm	11.4
Cl.Cn1cc(C2=C(c3ccc4cc5n(c4c3)CCC(CN)C5)C(=O)NC2=O)c2ccccc21 (configuration not stated)	ΔTm	6.7
Clc1ccc(Nc2nnc(Cc3ccncc3)c3ccccc23)cc1	ΔTm	0.3
Cc1cc(C=C2C(=O)C=CC2=O)cc(C)c1O	ΔTm	-2.9
O=c1c(-c2ccc(F)cc2)c(-c2ccncc2)[nH]n1-c1ccc(Cl)cc1	ΔTm	1.9
NC1=NC(=O)/C(=C2\CCNC(=O)c3[nH]c(Br)cc32)N1	ΔTm	7.4
CC[C@H](CO)Nc1nc(NCc2ccccc2)c2ncn(C(C)C)c2n1	ΔTm	0.4
CCOc1cc(/C=C(\C#N)C(N)=O)cc(CSc2ccccc2)c1O	ΔTm	1.1
Cc1nc(N)sc1-c1ccnc(Nc2cccc([N+](=O)[O-])c2)n1	ΔTm	2.1
COc1cccc(-c2cc(=O)c3ccccc3o2)c1N	ΔTm	0.1
O=C1NC(=O)c2c1c1c3ccccc3[nH]c1n1cncc21 [ISOGRANULATIMIDE]	ΔTm	8.8
CC(C)(C)n1nc(-c2ccc(Cl)cc2)c2c(N)ncnc21	ΔTm	0.5
O=C1Cc2c([nH]c3ccc([N+](=O)[O-])cc23)-c2ccccc2N1	ΔTm	11.9
O=C1NC(=O)C(c2c[nH]c3ccccc23)=C1c1c[nH]c2ccccc12	ΔTm	7.8
O=C(O)/C=C/c1cc(CO)ccc1CO	ΔTm	0.1
O=C1Nc2ccc(I)cc2/C1=C\c1cc(Br)c(O)c(Br)c1	ΔTm	3.6
COc1cc2ncnc(Nc3ccc(NC(=O)c4ccccc4)cc3)c2cc1OC	ΔTm	2.9
C/C(O)=C(\C#N)C(=O)Nc1cc(Br)ccc1Br	ΔTm	1.8
C#Cc1cccc(Nc2ncnc3cc(OCCOC)c(OCCOC)cc23)c1	ΔTm	-0.1
O=C1Nc2ccccc2/C1=C/c1cnc[nH]1	ΔTm	7.1
Nc1nc(Nc2ccc(S(N)(=O)=O)cc2)nn1C(=S)Nc1c(F)cccc1F	ΔTm	8
O=c1ccc2ccc(O)c(O)c2o1	ΔTm	0.2
Cc1nc(Nc2ncc(C(=O)Nc3c(C)cccc3Cl)s2)cc(N2CCN(CCO)CC2)n1	ΔTm	1.9
CCOC(=O)c1cnc2oc3ccc(O)cc3c2c1-c1ccccc1	ΔTm	4.3
O=c1c(O)c(-c2ccc(O)c(O)c2)oc2cc(O)cc(O)c12	ΔTm	7.8
CCN1/C(=C/C(C)=O)Sc2ccc(OC)cc21	ΔTm	1.4
O=C(Nc1cccc(Nc2nccc(Nc3cccc(C(F)(F)F)c3)n2)c1)C1CC1	ΔTm	1.1
N#C/C(=C\c1ccc(O)c(O)c1)C(=O)NCc1ccccc1	ΔTm	2.6
COc1cc(O)c2c(c1)oc(=O)c1c3cc(O)c(O)cc3oc21	ΔTm	-0.4
CN1CCc2[nH]c(=S)c(C#N)c(-c3cccs3)c2C1	ΔTm	4
O=c1cc(-c2ccc(O)cc2)oc2cc(O)cc(O)c12	ΔTm	5
O=C1C=C2C(=Nc3c2c2c(c4c3=NC3=C4CCC=C3)C=NC=2)CC1	ΔTm	2.3
NCCNc1ncc(C(N)=O)c(Nc2cccc(C(F)(F)F)c2)n1	ΔTm	8.1
O=c1cc(N2CCOCC2)oc2c(-c3ccccc3)cccc12	ΔTm	1.1
Brc1c(Br)c(Br)c2[nH]nnc2c1Br	ΔTm	2.4
CC(C)N(CCO)c1nc(Nc2cccc(Cl)c2)c2ncn(C(C)C)c2n1	ΔTm	2.4
CCOc1ccc(/C=C2/SC(=O)N(CCN)C2=O)cc1	ΔTm	-1.3

Cited source for all entries: ChEMBL document CHEMBL1145498
